# Protocol text: Study 3: plasma concentration of active substance, single test subject
# Type: in vivo, human
# Applied conditions: human, plasma, po; 2 mg capsule, 0.50 h
Measurement type: concentration at 0.5 h (ng/mL)
One number for each entry, in ng/mL.

Quick note, concentration at 0.5 h for CCOc1cc(CC(=O)NC(CC(C)C)c2ccccc2N2CCCCC2)ccc1C(=O)O (racemic) landed at 11

====

# Protocol text: clinical
# Applied conditions: human, plasma, po, 2 mg
Measurement type: concentration at 1 h
Hey, just the number and the unit after it is fine.

Quick note, concentration at 1 h for CCOc1cc(CC(=O)N[C@@H](CC(C)C)c2ccccc2N2CCCCC2)ccc1C(=O)O [AG-EE 623 ZW] landed at 29.9 ng/mL

====

# Protocol text: clinical
# Applied conditions: human, plasma, po, 0.5 mg
Measurement type: Tmax

Quick note, Tmax for `CCOc1cc(CC(=O)N[C@@H](CC(C)C)c2ccccc2N2CCCCC2)ccc1C(=O)O` landed at 36 min

====

# Test system: blood glucose
# Protocol text: Test for hypoglycemic activity in fasted female rats (oral)
# Type: in vivo
# Applied conditions: Rattus norvegicus, po; 0.5 mg/kg, 1 h; read-out: Change in glucose content compared with control
Measurement type: change in vivo at 0.5 mg/kg
Hey, just the number and the unit after it is fine.

compound="CCOc1cc(CC(=O)NC(CC2CCCO2)c2ccccc2N2CCCCC2)ccc1C(=O)O (stereo not drawn)" observed_result=-46%
compound="CCCC(NC(=O)Cc1ccc(C(=O)O)c(OCC)c1)c1ccccc1N1CCCCCC1 (stereo not drawn)" observed_result=-42%
compound="C=C(C)CC(NC(=O)Cc1ccc(C(=O)O)c(OCC)c1)c1ccccc1N1CCCCC1 (stereo not drawn)" observed_result=-44%
compound="C#CCC(NC(=O)Cc1ccc(C(=O)O)c(OCC)c1)c1ccccc1N1CCCCC1 (stereo not drawn)" observed_result=-33%
compound="CCCC(NC(=O)Cc1ccc(C(=O)O)c(OC)c1)c1ccccc1N1CCCCC1 (stereo not drawn)" observed_result=-42%

Give change in vivo at 0.5 mg/kg for each listed item.
1. CCCC(NC(=O)Cc1ccc(C(=O)O)c(OCC)c1)c1ccccc1N1CCCCC1 (stereo not drawn) [B]
2. CCOc1cc(CC(=O)NC(CC2CC2)c2ccccc2N2CCCCC2)ccc1C(=O)O (stereo not drawn)
3. CCCOc1cc(CC(=O)NC(CCC)c2ccccc2N2CCCCC2)ccc1C(=O)O (stereo not drawn)
4. CCCC(NC(=O)Cc1ccc(C(=O)O)c(OCC)c1)c1ccccc1N1CCCC1 (stereo not drawn)

-43%
-45%
-34%
-40%

====

# Protocol text: clinical
# Applied conditions: human, plasma, iv, 1 mg
Measurement type: concentration at 0.42 h (ng/mL)
Answers are plain numbers, in ng/mL.

Quick note, concentration at 0.42 h for CCOc1cc(CC(=O)NC(CC(C)C)c2ccccc2N2CCCCC2)ccc1C(=O)O (racemic) [AG-EE 388 ZW] landed at 69.6

====

# Protocol text: Study 1: plasma concentration, non-stereoselective HPLC
# Assay type: in vivo, human
# Applied conditions: human, plasma, po, 2 mg, 2 mg capsule, 3.00 h
Measurement type: concentration at 3 h
Hey, just the number and the unit after it is fine.

Quick note, concentration at 3 h for CCOc1cc(CC(=O)NC(CC(C)C)c2ccccc2N2CCCCC2)ccc1C(=O)O (racemic) [AG-EE 388 ZW] landed at 29.4 ng/mL
